Where do the numbers come from? From patent US20250312491A1.

tested on: human TTR gene; experiment: Base editing in primary human hepatocytes co-transfected with gRNA and ABE8.8 mRNA, NGS; format: cell-based; details: 625 ng/RNA/mL, rep 2, 3 days after transfection

molecule: GA459: guide RNA, human TTR, protospacer GCAACTTACCCAGAGGCAAA (SEQ ID NO: 25), gRNA SEQ ID NO: 13 (nucleic acid, chemistry not given here) guide: GCAACTTACCCAGAGGCAAAGTTTTAGAGCTAGAAATAGCAAGTTAAAATAAGGCTAGTCCGTTATCAACTTGAAAAAGTGGCACCGAGTCGGTGCTTTT
Human hepatocytes- Editing % 625, rep 2 [%]: 3.89
//
molecule: GA457: guide RNA, human TTR, protospacer GCCATCCTGCCAAGAATGAG (SEQ ID NO: 24), gRNA SEQ ID NO: 11 (nucleic acid, chemistry not given here) guide: GCCATCCTGCCAAGAATGAGGTTTTAGAGCTAGAAATAGCAAGTTAAAATAAGGCTAGTCCGTTATCAACTTGAAAAAGTGGCACCGAGTCGGTGCTTTT
Human hepatocytes- Editing % 625, rep 2 [%]: 15.39
//
molecule: GA460: guide RNA, human/cyno TTR, protospacer TATAGGAAAACCAGTGAGTC (SEQ ID NO: 26), gRNA SEQ ID NO: 14 (nucleic acid, chemistry not given here) guide: TATAGGAAAACCAGTGAGTCGTTTTAGAGCTAGAAATAGCAAGTTAAAATAAGGCTAGTCCGTTATCAACTTGAAAAAGTGGCACCGAGTCGGTGCTTTT
Human hepatocytes- Editing % 625, rep 2 [%]: 22.27
//
molecule: GA461: guide RNA, human/cyno TTR, protospacer TACTCACCTCTGCATGCTCA (SEQ ID NO: 27), gRNA SEQ ID NO: 15 (nucleic acid, chemistry not given here) guide: TACTCACCTCTGCATGCTCAGTTTTAGAGCTAGAAATAGCAAGTTAAAATAAGGCTAGTCCGTTATCAACTTGAAAAAGTGGCACCGAGTCGGTGCTTTT
Human hepatocytes- Editing % 625, rep 2 [%]: 22.31
